From: PubChem BioAssay (Tox21)

molecular target: Vitamin D3 receptor (Homo sapiens) (UniProt P11473); assay: qHTS assay to identify small molecule antagonists of the vitamin D receptor (VDR) signaling pathway (AID 743223); settings: VDR-UAS-bla HEK293T, beta-lactamase FRET ratio, 16 h; series mostly up to 61 µM
Sequence (P11473 whole entry, looked up): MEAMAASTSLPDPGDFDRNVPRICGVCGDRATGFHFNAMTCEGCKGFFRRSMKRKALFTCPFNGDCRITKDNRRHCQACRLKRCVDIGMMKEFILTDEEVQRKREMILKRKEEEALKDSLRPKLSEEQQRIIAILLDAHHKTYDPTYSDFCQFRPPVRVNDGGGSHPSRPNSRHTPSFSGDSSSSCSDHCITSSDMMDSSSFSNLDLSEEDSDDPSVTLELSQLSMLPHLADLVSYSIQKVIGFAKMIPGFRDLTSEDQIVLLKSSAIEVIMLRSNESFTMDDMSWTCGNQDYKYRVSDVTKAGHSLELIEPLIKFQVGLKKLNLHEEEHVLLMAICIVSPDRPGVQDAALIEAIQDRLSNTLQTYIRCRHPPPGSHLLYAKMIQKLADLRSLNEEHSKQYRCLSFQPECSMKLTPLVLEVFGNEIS
Results filed as inconclusive are left out. Active and inactive are the calls of the source. The call rests on the fitted dose curve; in most records, active means well fitted inhibition curve with a large enough effect in the signal ratio in the repeat runs (not every such curve was filed as active); inconclusive means weak or mixed curves, or effect the other way; inactive means no such curve, though single readings can be large or run the other way; the % refers to the signal ratio.
outcome measure: outcome

Examples with answers:
In [3]: df
Out[3]:
                                   compound  outcome_measure  experimental_result
0                            ClC(Cl)C(Cl)Cl          outcome             inactive
1                       CCCCOC(=O)c1ccccc1N          outcome             inactive
2  O=C1OC(CCN2CCCCC2)OC1(c1ccccc1)c1ccccc1 (stereo unspecified)          outcome             inactive
3              COc1cc(C[C@@H](C)N)c(OC)cc1C          outcome             inactive
4                COc1ccc(C(=O)N2CCCC2=O)cc1          outcome             inactive
5                   CCOc1nc(C(Cl)(Cl)Cl)ns1          outcome             inactive

Just so you know, measured outcome for "CN1CCC(N(Cc2ccccc2)c2ccccc2)CC1" came out at inactive
